Reference source for all entries: patent US20200339548A1

biological target: Adenosine A2a receptor (Homo sapiens); construct: expressed in transfected cells; host or cells: CHO cell membranes; test: Adenosine receptor TR-FRET binding assay, A2a; conditions: Table 9, further testing; displacement of 100 nM CA200645, CHO cell membranes
Sequence (P29274 whole entry): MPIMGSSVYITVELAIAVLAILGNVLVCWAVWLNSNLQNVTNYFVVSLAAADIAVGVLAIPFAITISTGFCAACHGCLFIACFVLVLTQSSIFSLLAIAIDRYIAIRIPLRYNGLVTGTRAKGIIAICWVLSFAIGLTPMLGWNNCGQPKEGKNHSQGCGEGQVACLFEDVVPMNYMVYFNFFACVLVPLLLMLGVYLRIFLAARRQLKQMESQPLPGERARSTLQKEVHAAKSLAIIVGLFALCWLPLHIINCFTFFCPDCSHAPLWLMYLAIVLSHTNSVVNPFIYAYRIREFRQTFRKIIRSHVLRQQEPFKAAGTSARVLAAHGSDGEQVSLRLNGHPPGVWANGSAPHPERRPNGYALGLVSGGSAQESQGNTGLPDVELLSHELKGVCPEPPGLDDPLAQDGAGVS
quantity_kind: Ki (nM)
Numbers only, in nM.

Guide cases for Ki, answers given:
{"smiles_structure": "CN(C)CCNC(=O)c1c(N)nc(-c2cccc(C#N)c2)nc1OCCF", "unit_abbrev": "nM", "Ki": 29}
{"smiles_structure": "Cc1cccnc1CNC(=O)c1c(N)nc(-c2ccco2)nc1OCC(C)(C)C", "unit_abbrev": "nM", "Ki": 1.8}
{"smiles_structure": "COc1cc(CNC(=O)c2cnc(-c3cccc(F)c3)nc2N)cc(OC)c1", "unit_abbrev": "nM", "Ki": 661}

Hey, can you go through the list below and give me Ki for every item?
1. Cc1cccnc1CNC(=O)c1cnc(-c2cccc(C#N)c2)nc1N
2. Cc1cccnc1CNC(=O)c1c(N)nc(-c2ccco2)nc1OCCF
3. Cc1cccnc1CNC(=O)c1cnc(-n2cccn2)nc1N
4. Cc1cccnc1CNC(=O)c1cnc(-c2ccc(F)cc2)nc1N
5. Nc1nc(-c2ccco2)ncc1C(=O)NCc1ccccc1C(F)F
6. Cn1ncnc1CNC(=O)c1c(N)nc(-c2cccc(C#N)c2)nc1OCCF
7. Cc1cccnc1CNC(=O)c1c(N)nc(-c2ccco2)nc1OCC(C)C
8. Cc1ccc(-c2ncc(C(=O)NCc3ncccc3C)c(N)n2)o1

[27, 0.11, 265, 744, 12, 8.1, 0.47, 424]

Hey, can you go through the list below and give me Ki for every item?
1. Cc1cccnc1CNC(=O)c1c(N)nc(-c2ncco2)nc1OCCF
2. Cc1cccnc1CNC(=O)c1c(N)nc(-c2ccco2)nc1OCCN1CCNCC1

1.3
287
